- Tested on: vancomycin-resistant enterococci
- measurement.protocol: broth micro-dilution, mean geometric MIC
- Assay type: cell-based, Enterococcus faecium and Enterococcus faecalis
- run.parameters: enterococci, 24-hour incubation
Recorded measurements of mean geometric MIC, Vancomycin Resistant Strains, one per entry
Numbers only; they are read as µg/mL.

CC#CCCCCCCCCCCOc1ccc(CNC2(C)CC(OC3C(Oc4c5cc6cc4Oc4ccc(cc4Cl)C(OC4CC(C)(N)C(O)C(C)O4)C4NC(=O)C(NC(=O)C6NC(=O)C(CC(N)=O)NC(=O)C(NC(=O)C(CC(C)C)NC)C(O)c6ccc(c(Cl)c6)O5)c5ccc(O)c(c5)-c5c(O)cc(O)cc5C(C(=O)O)NC4=O)OC(CO)C(O)C3O)OC(C)C2O)cc1 (stereo not drawn) [Compound 233]: 1.7

q: Query the reported mean geometric MIC, Vancomycin Resistant Strains for vancomycin-resistant enterococci; item: CNC(CC(C)C)C(=O)NC1C(=O)NC(CC(N)=O)C(=O)NC2C(=O)NC3C(=O)NC(C(=O)NC(C(=O)O)c4cc(O)cc(O)c4-c4cc3ccc4O)C(OC3CC(C)(N)C(O)C(C)O3)c3ccc(c(Cl)c3)Oc3cc2cc(c3OC2OC(CO)C(O)C(O)C2OC2CC(C)(NCc3ccc(-c4ccc([N+](=O)[O-])cc4)c([N+](=O)[O-])c3)C(O)C(C)O2)Oc2ccc(cc2Cl)C1O (stereo not drawn) [Compound 212]
a: 0.50

q: Query the reported mean geometric MIC, Vancomycin Resistant Strains for vancomycin-resistant enterococci; item: CNC(CC(C)C)C(=O)NC1C(=O)NC(CC(N)=O)C(=O)NC2C(=O)NC3C(=O)NC(C(=O)NC(C(=O)O)c4cc(O)cc(O)c4-c4cc3ccc4O)C(OC3CC(C)(N)C(O)C(C)O3)c3ccc(c(Cl)c3)Oc3cc2cc(c3OC2OC(CO)C(O)C(O)C2OC2CC(C)(NCCc3ccc(Oc4ccccc4)cc3)C(O)C(C)O2)Oc2ccc(cc2Cl)C1O (stereo not drawn) [Compound 33]
a: 2.8

q: Query the reported mean geometric MIC, Vancomycin Resistant Strains for vancomycin-resistant enterococci; item: CNC(CC(C)C)C(=O)NC1C(=O)NC(CC(N)=O)C(=O)NC2C(=O)NC3C(=O)NC(C(=O)NC(C(=O)O)c4cc(O)cc(O)c4-c4cc3ccc4O)C(OC3CC(C)(N)C(O)C(C)O3)c3ccc(c(Cl)c3)Oc3cc2cc(c3OC2OC(CO)C(O)C(O)C2OC2CC(C)(NCc3c4ccccc4c(C)c4ccccc34)C(O)C(C)O2)Oc2ccc(cc2Cl)C1O (stereo not drawn) [Compound 17]
a: 9.5

q: Query the reported mean geometric MIC, Vancomycin Resistant Strains for vancomycin-resistant enterococci; item: CNC(CC(C)C)C(=O)NC1C(=O)NC(CC(N)=O)C(=O)NC2C(=O)NC3C(=O)NC(C(=O)NC(C(=O)O)c4cc(O)cc(O)c4-c4cc3ccc4O)C(OC3CC(C)(N)C(O)C(C)O3)c3ccc(c(Cl)c3)Oc3cc2cc(c3OC2OC(CO)C(O)C(O)C2OC2CC(C)(NCCCCCCCCCC#Cc3ccccc3)C(O)C(C)O2)Oc2ccc(cc2Cl)C1O (stereo not drawn) [Compound 236]
a: 1.4

q: Query the reported mean geometric MIC, Vancomycin Resistant Strains for vancomycin-resistant enterococci; item: CNC(CC(C)C)C(=O)NC1C(=O)NC(CC(N)=O)C(=O)NC2C(=O)NC3C(=O)NC(C(=O)NC(C(=O)O)c4cc(O)cc(O)c4-c4cc3ccc4O)C(OC3CC(C)(N)C(O)C(C)O3)c3ccc(c(Cl)c3)Oc3cc2cc(c3OC2OC(CO)C(O)C(O)C2OC2CC(C)(NCc3cccc(OCc4ccc5ccccc5n4)c3)C(O)C(C)O2)Oc2ccc(cc2Cl)C1O (stereo not drawn) [Compound 125]
a: 3.4

====

Recorded measurements of MIC, one per entry
- Tested on: Staphylococcus aureus 447
- measurement.protocol: broth micro-dilution MIC
- Format: cell-based
Numbers only; they are read as µg/mL.

CNC(CC(C)C)C(=O)NC1C(=O)NC(CC(N)=O)C(=O)NC2C(=O)NC3C(=O)NC(C(=O)NC(C(=O)O)c4cc(O)cc(O)c4-c4cc3ccc4O)C(OC3CC(C)(N)C(O)C(C)O3)c3ccc(c(Cl)c3)Oc3cc2cc(c3OC2OC(CO)C(O)C(O)C2OC2CC(C)(NCc3ccc(OCc4ccc([N+](=O)[O-])cc4)cc3)C(O)C(C)O2)Oc2ccc(cc2Cl)C1O (centres unmarked): 1
CCCCCC1CCC(c2ccc(CNC3(C)CC(OC4C(Oc5c6cc7cc5Oc5ccc(cc5Cl)C(OC5CC(C)(N)C(O)C(C)O5)C5NC(=O)C(NC(=O)C7NC(=O)C(CC(N)=O)NC(=O)C(NC(=O)C(CC(C)C)NC)C(O)c7ccc(c(Cl)c7)O6)c6ccc(O)c(c6)-c6c(O)cc(O)cc6C(C(=O)O)NC5=O)OC(CO)C(O)C4O)OC(C)C3O)cc2)CC1 (centres unmarked): 8
CNC(CC(C)C)C(=O)NC1C(=O)NC(CC(N)=O)C(=O)NC2C(=O)NC3C(=O)NC(C(=O)NC(C(=O)O)c4cc(O)cc(O)c4-c4cc3ccc4O)C(OC3CC(C)(N)C(O)C(C)O3)c3ccc(c(Cl)c3)Oc3cc2cc(c3OC2OC(CO)C(O)C(O)C2OC2CC(C)(NCc3cc4ccccc4c4ccccc34)C(O)C(C)O2)Oc2ccc(cc2Cl)C1O (centres unmarked): 4
CNC(CC(C)C)C(=O)NC1C(=O)NC(CC(N)=O)C(=O)NC2C(=O)NC3C(=O)NC(C(=O)NC(C(=O)O)c4cc(O)cc(O)c4-c4cc3ccc4O)C(OC3CC(C)(N)C(O)C(C)O3)c3ccc(c(Cl)c3)Oc3cc2cc(c3OC2OC(CO)C(O)C(O)C2OC2CC(C)(NCc3ccc(-c4ccc(Br)cc4)cc3)C(O)C(C)O2)Oc2ccc(cc2Cl)C1O (centres unmarked): 0.5
CNC(CC(C)C)C(=O)NC1C(=O)NC(CC(N)=O)C(=O)NC2C(=O)NC3C(=O)NC(C(=O)NC(C(=O)O)c4cc(O)cc(O)c4-c4cc3ccc4O)C(OC3CC(C)(N)C(O)C(C)O3)c3ccc(c(Cl)c3)Oc3cc2cc(c3OC2OC(CO)C(O)C(O)C2OC2CC(C)(NCc3sccc3-c3cccs3)C(O)C(C)O2)Oc2ccc(cc2Cl)C1O (centres unmarked): 0.5
CNC(CC(C)C)C(=O)NC1C(=O)NC(CC(N)=O)C(=O)NC2C(=O)NC3C(=O)NC(C(=O)NC(C(=O)O)c4cc(O)cc(O)c4-c4cc3ccc4O)C(OC3CC(C)(N)C(O)C(C)O3)c3ccc(c(Cl)c3)Oc3cc2cc(c3OC2OC(CO)C(O)C(O)C2OC2CC(C)(NCc3cccc(Oc4cccc(C(F)(F)F)c4)c3)C(O)C(C)O2)Oc2ccc(cc2Cl)C1O (centres unmarked) [Compound 111]: 1
CNC(CC(C)C)C(=O)NC1C(=O)NC(CC(N)=O)C(=O)NC2C(=O)NC3C(=O)NC(C(=O)NC(C(=O)O)c4cc(O)cc(O)c4-c4cc3ccc4O)C(OC3CC(C)(N)C(O)C(C)O3)c3ccc(c(Cl)c3)Oc3cc2cc(c3OC2OC(CO)C(O)C(O)C2OC2CC(C)(NCc3ccc(-c4ccccc4)s3)C(O)C(C)O2)Oc2ccc(cc2Cl)C1O (centres unmarked): 1
CN[C@@H](CC(C)C)C(=O)N[C@H]1C(=O)N[C@H](CC(N)=O)C(=O)N[C@H]2C(=O)N[C@H]3C(=O)N[C@@H](C(=O)NC(C(=O)O)c4cc(O)cc(O)c4-c4cc3ccc4O)[C@@H](O[C@H]3C[C@](C)(N)[C@H](O)[C@@H](C)O3)c3ccc(cc3)Oc3cc2cc(c3O[C@H]2O[C@@H](CO)[C@@H](O)[C@H](O)[C@@H]2O[C@H]2C[C@](C)(N)[C@H](O)[C@@H](C)O2)Oc2ccc(cc2)[C@@H]1O (some centres unmarked) [Compound A82846C, A82846C, reference compound]: 0.5

q: Look at this compound and give its reported MIC. CNC(CC(C)C)C(=O)NC1C(=O)NC(CC(N)=O)C(=O)NC2C(=O)NC3C(=O)NC(C(=O)NC(C(=O)O)c4cc(O)cc(O)c4-c4cc3ccc4O)C(OC3CC(C)(N)C(O)C(C)O3)c3ccc(c(Cl)c3)Oc3cc2cc(c3OC2OC(CO)C(O)C(O)C2OC2CC(C)(NCc3cccc4c3OCO4)C(O)C(C)O2)Oc2ccc(cc2Cl)C1O (centres unmarked)
a: 1

q: Look at this compound and give its reported MIC. CNC(CC(C)C)C(=O)NC1C(=O)NC(CC(N)=O)C(=O)NC2C(=O)NC3C(=O)NC(C(=O)NC(C(=O)O)c4cc(O)cc(O)c4-c4cc3ccc4O)C(OC3CC(C)(N)C(O)C(C)O3)c3ccc(c(Cl)c3)Oc3cc2cc(c3OC2OC(CO)C(O)C(O)C2OC2CC(C)(NCc3ccnc4ccccc34)C(O)C(C)O2)Oc2ccc(cc2Cl)C1O (centres unmarked)
a: 8

====

- System: vancomycin-susceptible enterococci
- measurement.protocol: broth micro-dilution, mean geometric MIC
- Assay type: cell-based, Enterococcus faecium and Enterococcus faecalis
- run.parameters: enterococci, 24-hour incubation
property.name: mean geometric MIC, Vancomycin Sensitive Strains
# output: numeric value plus its unit

Observe how each entry below is paired with its result.
CCCCCC1CCC(c2ccc(CNC3(C)CC(OC4C(Oc5c6cc7cc5Oc5ccc(cc5Cl)C(OC5CC(C)(N)C(O)C(C)O5)C5NC(=O)C(NC(=O)C7NC(=O)C(CC(N)=O)NC(=O)C(NC(=O)C(CC(C)C)NC)C(O)c7ccc(c(Cl)c7)O6)c6ccc(O)c(c6)-c6c(O)cc(O)cc6C(C(=O)O)NC5=O)OC(CO)C(O)C4O)OC(C)C3O)cc2)CC1 (stereo not drawn) [Compound 34]: 3.4 µg/mL
CNC(CC(C)C)C(=O)NC1C(=O)NC(CC(N)=O)C(=O)NC2C(=O)NC3C(=O)NC(C(=O)NC(C(=O)O)c4cc(O)cc(O)c4-c4cc3ccc4O)C(OC3CC(C)(N)C(O)C(C)O3)c3ccc(c(Cl)c3)Oc3cc2cc(c3OC2OC(CO)C(O)C(O)C2OC2CC(C)(NCc3ccc(Oc4ccc([N+](=O)[O-])cc4)cc3)C(O)C(C)O2)Oc2ccc(cc2Cl)C1O (stereo not drawn) [Compound 57]: 0.041 µg/mL

q: Look at this compound and give its reported mean geometric MIC, Vancomycin Sensitive Strains. CC(C)CC(C(=O)NC1C(=O)NC(CC(N)=O)C(=O)NC2C(=O)NC3C(=O)NC(C(=O)NC(C(=O)O)c4cc(O)cc(O)c4-c4cc3ccc4O)C(OC3CC(C)(N)C(O)C(C)O3)c3ccc(c(Cl)c3)Oc3cc2cc(c3OC2OC(CO)C(O)C(O)C2OC2CC(C)(N)C(O)C(C)O2)Oc2ccc(cc2Cl)C1O)N(C)Cc1ccc(-c2ccc(Cl)cc2)cc1.O=C(O)C(F)(F)F (stereo not drawn) [Compound 252]
a: 0.1 µg/mL

src = patent US5840684A
